molecular target: PGRMC1 (progesterone receptor membrane component 1) (Homo sapiens); construct: recombinant truncated human PGRMC1 (aa 43–195), His tag removed by thrombin; assay: spectrophotometric hemin titration (A394), Hill fit
Sequence (O00264 43-195): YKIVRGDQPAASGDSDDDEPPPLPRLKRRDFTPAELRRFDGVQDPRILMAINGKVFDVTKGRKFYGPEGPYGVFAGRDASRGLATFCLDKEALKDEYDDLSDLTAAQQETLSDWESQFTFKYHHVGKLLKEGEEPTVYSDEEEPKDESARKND
Experimental Endpoint: Kd (µM)
Numbers only, in µM.

Data request: Respond only with Kd recorded for C=CC1=C(C)C2=Cc3c(C=C)c(C)c4[n]3[Fe]([Cl])[n]3c(c(C)c(CCC(=O)O)c3=CC3=NC(=C4)C(C)=C3CCC(=O)O)=CC1=N2
Data returned: 4.9

* * *

biological target: Y113F PGRMC1 (progesterone receptor membrane component 1) (Homo sapiens, UniProt O00264, Y113F); construct: recombinant truncated human PGRMC1 (aa 43–195), His tag removed by thrombin; test: spectrophotometric hemin titration (A394), Hill fit
Sequence (O00264 43-195 Y113F): as the sequence (O00264 43-195) above, with Y71F counted along it
Experimental Endpoint: Kd

Data request: Respond only with Kd recorded for C=CC1=C(C)C2=Cc3c(C=C)c(C)c4[n]3[Fe]([Cl])[n]3c(c(C)c(CCC(=O)O)c3=CC3=NC(=C4)C(C)=C3CCC(=O)O)=CC1=N2
Data returned: 4.7 µM
